The measurements presented in this section are drawn from PubChem BioAssay.

- Assay Text: VP16 transactivation inhibitors, counter-screen for SRC1 inhibitor project, cell-based, luminescence, high throughput (AID 588824)
- Recorded Conditions: cell-based VP16 transactivation luciferase luminescence; at 3.6 µM
The source made the active and inactive calls. Rule as the data show it: active = inhibition above about 25%; inactive = the rest.
Can you answer with just one of these options? active, inactive

Some solved cases for reference:
compound=CC1(C)CC(=O)c2sc(N)nc2C1 assigned_label=inactive
compound=O=C(N/N=C/c1cc(O)ccc1Br)c1cccnc1 assigned_label=active
compound=c1ccc(-c2cc(N3CCCCC3)nc(-c3ccccc3)n2)cc1 assigned_label=inactive
compound=COc1ccc(NC(=O)C2CCN(c3cnccn3)CC2)cc1Cl assigned_label=inactive
compound=COc1cccc(NC(=O)CN(C)CC(=O)Nc2ccc(Cl)cc2[N+](=O)[O-])c1 assigned_label=inactive
compound="CC(=O)NC(c1ccc2ccccc2c1)c1ccc2cccnc2c1O (configuration not stated)" assigned_label=active

In the following, a different compound is considered.
## Input Could you please tell me the result logged for CC(C)(C)c1ccc(OCCC(=O)NNC(=O)c2ccncc2)cc1 in this assay?
## Output inactive
